# Read-out: Macrophage colony-stimulating factor (MCSF), CSF1 (gene 1435)
# procedure-details: BSK_LPS_MCSF: BioMAP Diversity Plus: LPS Assay for Macrophage colony-stimulating factor (MCSF) Biomarker Activity (AID 2283083)
# experimental-conditions: primary human HUVEC with PBMC; actives raise or lower the signal
The source made the active and inactive calls. Rule for the calls: active = hit-call score of the fitted dose curve at least 0.9, where 1 is the maximum; inactive = score below 0.9.
Hi there, use one of these labels in your reply, thanks! active, inactive

Ask | So what was the verdict on CC(C)Oc1cc(-n2nc(C(C)(C)C)oc2=O)c(Cl)cc1Cl in this test?
Reply | active

Ask | So what was the verdict on O=C(O)COc1nc(Cl)c(Cl)cc1Cl in this test?
Reply | inactive

Ask | So what was the verdict on C=CC1(C)OC(=O)N(c2cc(Cl)cc(Cl)c2)C1=O (stereo not given) in this test?
Reply | inactive

Ask | So what was the verdict on CCNc1nc(Cl)nc(NC(C)C)n1 in this test?
Reply | inactive

Ask | So what was the verdict on CCOC(=O)CC(SP(=S)(OC)OC)C(=O)OCC (stereo not given) in this test?
Reply | inactive

Ask | So what was the verdict on Cc1ccc(-c2c(Cl)nc(C#N)n2S(=O)(=O)N(C)C)cc1 in this test?
Reply | active

Ask | So what was the verdict on COC(=O)C=C(C)OP(=O)(OC)OC in this test?
Reply | inactive

Ask | So what was the verdict on OC(c1ccc(Cl)cc1)(c1cncnc1)c1ccccc1Cl (stereo not given) in this test?
Reply | inactive

Ask | So what was the verdict on O=C(Nc1ccccc1)Nc1ccnc(Cl)c1 in this test?
Reply | inactive

Ask | So what was the verdict on C=CCC1=C(C)C(OC(=O)C2C(C=C(C)C)C2(C)C)CC1=O (stereo not given) in this test?
Reply | active

Ask | So what was the verdict on COC(=O)N(OC)c1ccccc1COc1ccn(-c2ccc(Cl)cc2)n1 in this test?
Reply | active

Ask | So what was the verdict on CCNc1nc(Cl)nc(NCC)n1 in this test?
Reply | inactive

Ask | So what was the verdict on CCCN(CCC)c1c([N+](=O)[O-])cc(S(N)(=O)=O)cc1[N+](=O)[O-] in this test?
Reply | active

Ask | So what was the verdict on CS/C(C)=N/OC(=O)N(C)SN(C)C(=O)O/N=C(\C)SC in this test?
Reply | active

Ask | So what was the verdict on CCOC(=O)C(Cl)Cc1cc(-n2nc(C)n(C(F)F)c2=O)c(F)cc1Cl (stereo not given) in this test?
Reply | inactive

Ask | So what was the verdict on COP(=S)(OC)Oc1nc(Cl)c(Cl)cc1Cl in this test?
Reply | inactive

Ask | So what was the verdict on CCOP(=S)(OCC)SCn1c(=O)oc2cc(Cl)ccc21 in this test?
Reply | active

Ask | So what was the verdict on Oc1ccccc1-c1ccccc1 in this test?
Reply | inactive

Ask | So what was the verdict on Fc1ccc(Oc2ccnc3cc(Cl)cc(Cl)c23)cc1 in this test?
Reply | active

Ask | So what was the verdict on CO/C=C(/C(=O)OC)c1ccccc1Oc1cc(Oc2ccccc2C#N)ncn1 in this test?
Reply | active

Ask | So what was the verdict on Cc1c(F)c(F)c(COC(=O)C2C(/C=C(\Cl)C(F)(F)F)C2(C)C)c(F)c1F (stereo not given) in this test?
Reply | active

Ask | So what was the verdict on COC(=O)C(C)Oc1ccc(Oc2ccc(Cl)cc2Cl)cc1 (stereo not given) in this test?
Reply | inactive

Ask | So what was the verdict on CCOc1cc(Oc2ccc(C(F)(F)F)cc2Cl)ccc1[N+](=O)[O-] in this test?
Reply | active

Ask | So what was the verdict on CCCCOC(=O)c1ccccc1C(=O)OCCCC in this test?
Reply | inactive

Ask | So what was the verdict on CC1=C(C(=O)Nc2ccccc2)SCCO1 in this test?
Reply | inactive
